meta.source: PubChem BioAssay AID602340

Test: protection of differentiated C2C12 cells from simvastatin – single point, plate reader, primary screen (AID 602340);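 note: myotubes were challenged with 10 µM simvastatin during compound exposure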
Details: C2C12 myotubes + simvastatin, ATP luminescence, 48 h; at 7.49 µM; scaled: DMSO 0, geranylgeraniol control 100
About 2,600 (0.79%) of roughly 330,000 compounds were called active.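 Rule for the calls: active = mean ATP rescue above about 67%, or every replicate alone reaching that limit (limit read from the data, passing the limit was not always enough); inconclusive = no clear call, values can overlap the other calls; inactive = mean under the limit and some replicate under it.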 Shown is part of a subset that was picked to be rich in actives.
Would you mind answering with one of these outcomes? t for active, f for inactive

[[record]]
chem_smiles = "C[C@@H]1CCCCO[C@@H](CN(C)Cc2ccc3c(c2)OCO3)[C@H](C)CN([C@@H](C)CO)C(=O)c2cc(NS(C)(=O)=O)ccc2O1"
discrete_label = "f"

[[record]]
chem_smiles = "C[C@@H]1CCCCO[C@H](CN(C)C(=O)Nc2cccc3ccccc23)[C@@H](C)CN([C@H](C)CO)C(=O)c2cc(NC(=O)Nc3ccc4c(c3)OCO4)ccc2O1"
discrete_label = "f"

[[record]]
chem_smiles = "C=CCNC(=O)c1cc2nc(C3CC3)cc(C(F)F)n2n1"
discrete_label = "f"

[[record]]
chem_smiles = "O=C(Nc1cc(C(F)(F)F)ccc1Cl)c1cc2nc3c(c(C(F)(F)F)n2n1)CCCC3"
discrete_label = "f"

[[record]]
chem_smiles = "O=C(C[C@H]1C=C[C@H](NC(=O)CN2CCOCC2)[C@@H](CO)O1)NCc1cccc(F)c1"
discrete_label = "f"

[[record]]
chem_smiles = "O=C(C[C@@H]1CC[C@@H]2[C@H](COC[C@@H](O)CN2S(=O)(=O)c2cccc(Cl)c2)O1)N1CCOCC1"
discrete_label = "f"

[[record]]
chem_smiles = "C[C@@H]1CN([C@H](C)CO)S(=O)(=O)c2ccc(C#C[C@@H](C)O)cc2O[C@H]1CN(C)CC1CC1"
discrete_label = "f"


Would you kindly look at the next entry?
Query string: Please share the test call associated with `C[C@H](CO)N1C[C@H](C)[C@H](CN(C)C(=O)Nc2cccc3ccccc23)OCCCC[C@H](C)Oc2ccc(NC(=O)Nc3ccc4c(c3)OCO4)cc2C1=O` .
Result string: t

* * *

Assay: protection of differentiated C2C12 cells from simvastatin – single point, plate reader, primary screen (AID 602340);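 note: myotubes were challenged with 10 µM simvastatin during compound exposure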
Details: C2C12 myotubes + simvastatin, ATP luminescence, 48 h; at 7.49 µM; stronger effect = higher value; scaled: DMSO 0, geranylgeraniol control 100
About 2,600 (0.79%) of roughly 330,000 compounds were called active. Shown is part of a subset that was picked to be rich in actives.
Endpoint label: rescue of ATP level (%)
Give bare numbers, in %.

Some molecules with known rescue of ATP level results, for comparison:
[[record]]
molecule = "CCOC(=O)c1cc2sccc2n1Cc1ccc(C#N)cc1"
display_unit = "%"
assay_value = 29.8

[[record]]
molecule = "COc1ccc2[nH]c(=O)c(CN(CC3CCCO3)C(=O)Nc3ccccc3)cc2c1 (configuration not stated)"
display_unit = "%"
assay_value = -11.6


Provide rescue of ATP level for all items below, preserving their order.
1. C[C@@H]1CN([C@H](C)CO)C(=O)Cc2cc(NC(=O)Cn3cnnn3)ccc2O[C@H]1CN(C)Cc1ccc(Cl)c(Cl)c1
2. Cc1c(C(C)(C)O)[nH]c2ccc(C#N)cc12
3. COc1cc(C2C(C(=O)c3sc(C)nc3C)=C(O)C(=O)N2CCN(C)C)cc(OC)c1OC (configuration not stated)

Result string:
[18.5, 81.3, 116]

Provide rescue of ATP level for all items below, preserving their order.
1. C=CCNC(=S)N/N=C/c1ccc(OCc2ccccc2)cc1
2. Cc1noc(C)c1NC(=O)Nc1ccc2c(c1)CC(=O)N([C@@H](C)CO)C[C@H](C)[C@H](CN(C)S(=O)(=O)c1c(C)noc1C)O2

Result string:
1: 106; 2: -4.37

Provide rescue of ATP level for all items below, preserving their order.
1. C[C@H]1CN([C@@H](C)CO)C(=O)Cc2cc(NC(=O)CCCN(C)C)ccc2O[C@@H]1CN(C)Cc1ccc(-c2ccccc2)cc1
2. C[C@H](CO)N1C[C@H](C)[C@@H](CN(C)Cc2ccc(-c3ccccc3)cc2)Oc2ccc(NC(=O)CCC(F)(F)F)cc2CC1=O
3. O=C(C[C@H]1C=C[C@H](NC(=O)NC2CCCCC2)[C@H](CO)O1)NCc1ccccc1

Result string:
1: 17.6; 2: 74.7; 3: 2.53
